- Tested on: MCC-13
- assay text: qHTS assay to identify novel small-molecules to repurpose for Merkel cell carcinoma treatment (AID 1296009); note: % is set by controls: 0 for no effect and ±100 for the full control effect; nearly all actives have a fitted effect of over 60% in size
- test context: MCC and control cell lines, CellTiter-Glo viability, 72 h; series mostly up to 46 µM
Records with an inconclusive call do not appear. Activity calls are given as the source filed them. Calls come from the whole dose curve; as a rule, active = well fitted inhibition curve with a large enough effect; inconclusive = small, poorly fitted or top-dose-only effect; inactive = flat fitted curve, though single readings scatter.
observed property: activity change, negative = cytotoxicity

Worked cases, answers included:
| molecule | observed property | observed result |
| --- | --- | --- |
| O=C(O)CN(CCOCCOCCN(CC(=O)O)CC(=O)O)CC(=O)O | activity change, negative = cytotoxicity | -0.433% [at 0.597 µM] (inactive) |
| CCCNC(C)C(=O)Nc1ccccc1C (configuration not stated) | activity change, negative = cytotoxicity | inactive |
| C#CCN(C)CCCOc1ccc(Cl)cc1Cl | activity change, negative = cytotoxicity | inactive |
| CN1CCN(C2=Nc3ccccc3Oc3ccc(Cl)cc32)CC1 | activity change, negative = cytotoxicity | inactive |
| CCN(CC)CC(=O)Nc1c(C)cccc1C | activity change, negative = cytotoxicity | inactive |

Note activity change, negative = cytotoxicity for the molecule shown: "CN1C(=O)CC[C@H]1c1cccnc1"
inactive

Note activity change, negative = cytotoxicity for the molecule shown: "NC(=O)N1c2ccccc2C=Cc2ccccc21"
inactive

Note activity change, negative = cytotoxicity for the molecule shown: CC(N=C(NC#N)Nc1ccncc1)C(C)(C)C (configuration not stated)
inactive

Note activity change, negative = cytotoxicity for the molecule shown: CNC1(C)C2CCC(C2)C1(C)C (configuration not stated)
inactive

Note activity change, negative = cytotoxicity for the molecule shown: "NCCCNCCSP(=O)(O)O"
18.6% [at 9.22 µM] (inactive)

Note activity change, negative = cytotoxicity for the molecule shown: "Cc1nnc(SCC2=C(C(=O)O)N3C(=O)[C@@H](NC(=O)Cn4cnnn4)[C@H]3SC2)s1"
inactive

Note activity change, negative = cytotoxicity for the molecule shown: "C[C@]12C=CC(=O)C=C1CC[C@H]1[C@@H]3C[C@@H](O)[C@](O)(C(=O)CO)[C@@]3(C)C[C@H](O)[C@@]12F"
inactive
